What kinase still bound, per cent of control was measured for each of the following?
system: STK33 (human) (UniProt Q9BYT3)
Sequence (Q9BYT3 whole entry, looked up): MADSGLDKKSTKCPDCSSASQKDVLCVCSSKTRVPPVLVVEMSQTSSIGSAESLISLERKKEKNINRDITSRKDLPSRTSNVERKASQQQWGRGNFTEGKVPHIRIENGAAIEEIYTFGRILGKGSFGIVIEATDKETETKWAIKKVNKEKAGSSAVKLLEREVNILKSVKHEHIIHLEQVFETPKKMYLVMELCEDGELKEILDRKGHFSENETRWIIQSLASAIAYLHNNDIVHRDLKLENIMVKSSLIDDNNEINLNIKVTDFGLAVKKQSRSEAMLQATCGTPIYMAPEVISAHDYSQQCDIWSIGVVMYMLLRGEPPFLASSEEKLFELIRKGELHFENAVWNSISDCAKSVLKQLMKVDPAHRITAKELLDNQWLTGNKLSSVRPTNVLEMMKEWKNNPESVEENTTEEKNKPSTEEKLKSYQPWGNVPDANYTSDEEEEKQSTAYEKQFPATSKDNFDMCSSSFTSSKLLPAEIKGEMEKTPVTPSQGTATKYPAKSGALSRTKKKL
procedure-text: KINOMEscan competition binding
conditions-used: compound 10.0 µM
Answers are plain numbers, in %.

Example entries begin here.
compound_smiles=Cc1cnc(-c2cnc(NCCNc3ccc(C#N)cn3)nc2-c2ccc(Cl)cc2Cl)[nH]1 experimental_result=100
compound_smiles=Cn1cc(C2=C(c3ccc(Cl)cc3Cl)C(=O)NC2=O)c2ccccc21 experimental_result=100
compound_smiles=O=C1Nc2cc(Br)ccc2/C1=C1/Nc2ccccc2/C1=N\O experimental_result=11

Please look up its kinase still bound, per cent of control: COc1ccc(CNC(=O)Nc2ncc([N+](=O)[O-])s2)cc1
75

====

system: EPHA2 (human)
procedure-text: KINOMEscan competition binding
conditions-used: compound 10.0 µM
For each record, write down the corresponding kinase still bound, per cent of control.
Express your answer as a number followed by its unit.

Consider the worked cases shown below.
compound_smiles=O=C1Nc2cc(Br)ccc2/C1=C1/Nc2ccccc2/C1=N\O experimental_result=35%
compound_smiles=Cc1cnc(-c2cnc(NCCNc3ccc(C#N)cn3)nc2-c2ccc(Cl)cc2Cl)[nH]1 experimental_result=96%
compound_smiles=COc1ccc(CNC(=O)Nc2ncc([N+](=O)[O-])s2)cc1 experimental_result=95%

--- query ---
Quick one: kinase still bound, per cent of control for Cn1cc(C2=C(c3ccc(Cl)cc3Cl)C(=O)NC2=O)c2ccccc21 ?
100%

====

system: TBK1 (human) (UniProt Q9UHD2)
Sequence (Q9UHD2 whole entry, looked up): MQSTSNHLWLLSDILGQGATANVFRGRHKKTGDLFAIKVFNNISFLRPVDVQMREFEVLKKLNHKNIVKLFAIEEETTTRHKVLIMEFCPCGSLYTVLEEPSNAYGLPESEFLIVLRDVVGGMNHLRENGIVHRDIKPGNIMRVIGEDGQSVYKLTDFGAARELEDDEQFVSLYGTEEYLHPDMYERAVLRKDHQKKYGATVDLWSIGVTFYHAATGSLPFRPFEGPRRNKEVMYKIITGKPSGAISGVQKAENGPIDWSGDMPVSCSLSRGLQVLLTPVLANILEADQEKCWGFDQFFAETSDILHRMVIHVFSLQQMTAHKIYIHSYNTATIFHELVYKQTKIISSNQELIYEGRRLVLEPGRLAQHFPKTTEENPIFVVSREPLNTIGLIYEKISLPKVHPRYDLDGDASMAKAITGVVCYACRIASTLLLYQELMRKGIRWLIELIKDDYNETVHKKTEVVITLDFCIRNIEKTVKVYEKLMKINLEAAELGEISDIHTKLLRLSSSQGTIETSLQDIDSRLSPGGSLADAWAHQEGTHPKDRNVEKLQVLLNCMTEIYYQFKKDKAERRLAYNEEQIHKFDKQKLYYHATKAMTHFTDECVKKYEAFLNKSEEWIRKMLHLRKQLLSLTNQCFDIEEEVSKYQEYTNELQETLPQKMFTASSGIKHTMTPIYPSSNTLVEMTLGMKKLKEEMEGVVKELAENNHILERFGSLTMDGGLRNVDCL
procedure-text: KINOMEscan competition binding
conditions-used: compound 10.0 µM
Provide the reported kinase still bound, per cent of control of each item.
Give bare numbers, in %.

Known kinase still bound, per cent of control results, listed for orientation:
compound_smiles=Cn1cc(C2=C(c3ccc(Cl)cc3Cl)C(=O)NC2=O)c2ccccc21 assay_endpoint="kinase still bound, per cent of control" experimental_result=90
compound_smiles=O=C1Nc2cc(Br)ccc2/C1=C1/Nc2ccccc2/C1=N\O assay_endpoint="kinase still bound, per cent of control" experimental_result=32
compound_smiles=COc1ccc(CNC(=O)Nc2ncc([N+](=O)[O-])s2)cc1 assay_endpoint="kinase still bound, per cent of control" experimental_result=100

Let us examine a further case.
Fill in the recorded kinase still bound, per cent of control for this compound, with TBK1 (human) (UniProt Q9UHD2) as test system: Cc1cnc(-c2cnc(NCCNc3ccc(C#N)cn3)nc2-c2ccc(Cl)cc2Cl)[nH]1
96

====

For each entry below, report its kinase still bound, per cent of control value.
system: RPS6KA2 KD1 (human)
procedure-text: KINOMEscan competition binding
conditions-used: compound 10.0 µM
Give me the value, and tack the unit on after it.

Reference set, count: 3
compound_smiles=O=C1Nc2cc(Br)ccc2/C1=C1/Nc2ccccc2/C1=N\O system="RPS6KA2 KD1 (human)" assay_endpoint="kinase still bound, per cent of control" experimental_result=2.2%
compound_smiles=Cn1cc(C2=C(c3ccc(Cl)cc3Cl)C(=O)NC2=O)c2ccccc21 system="RPS6KA2 KD1 (human)" assay_endpoint="kinase still bound, per cent of control" experimental_result=73%
compound_smiles=Cc1cnc(-c2cnc(NCCNc3ccc(C#N)cn3)nc2-c2ccc(Cl)cc2Cl)[nH]1 system="RPS6KA2 KD1 (human)" assay_endpoint="kinase still bound, per cent of control" experimental_result=70%

Alright, here's another compound for you.
Consider the compound shown here: COc1ccc(CNC(=O)Nc2ncc([N+](=O)[O-])s2)cc1 What is its recorded kinase still bound, per cent of control?
100%

Where do the numbers come from? From the kinase profiling compilation of Christmann-Franck et al. (2016).
